Taken from PubChem BioAssay AID2060903.

Tested on: 377384-186-R-J1-PDC complex spheroid viability
Test: Anticancer human tumor 377384-186-R-J1-PDC patient-derived pancreatic carcinoma cell line growth inhibition [RAS]
Conditions: curve of first compound; second compound 0.316 µM
experimental readout: IC50

Answered examples (6):
compound: C=CC(=O)Nc1cc(Nc2nccc(-c3cn(C)c4ccccc34)n2)c(OC)cc1N(C)CCN(C)C + C=CC(=O)N1CCN(c2nc(OCC3CCCN3C)nc3c(F)c(-c4nc(N)cc(C)c4C(F)(F)F)c(Cl)cc23)C(C)C1
IC50: 905 nM
--
compound: CC(C)NCC(C(=O)N1CCN(c2ncnc3c2C(C)CC3O)CC1)c1ccc(Cl)cc1 (stereo not drawn) + C#Cc1c(F)ccc2cc(O)cc(-c3ncc4c(N5CC6CCC(C5)N6)nc(OCC56CCCN5CC(F)C6)nc4c3F)c12
IC50: < 31.6 nM
--
compound: CCN1CCN(Cc2ccc(Nc3ncc(F)c(-c4cc(F)c5nc(C)n(C(C)C)c5c4)n3)nc2)CC1 + C=CC(=O)N1CCN(c2nc(OCC3CCCN3C)nc3c(F)c(-c4nc(N)cc(C)c4C(F)(F)F)c(Cl)cc23)C(C)C1
IC50: 223 nM
--
compound: C[C@@H](NC(=O)c1ncnc(N)c1Cl)c1ncc(C(=O)Nc2cc(C(F)(F)F)c(Cl)cn2)s1 + C=CC(=O)N1CCN(c2nc(OCC3CCCN3C)nc3c(F)c(-c4nc(N)cc(C)c4C(F)(F)F)c(Cl)cc23)C(C)C1
IC50: > 10000 nM
--
compound: C=CC(=O)Nc1cc(Nc2nccc(-c3cn(C)c4ccccc34)n2)c(OC)cc1N(C)CCN(C)C + C#Cc1c(F)ccc2cc(O)cc(-c3ncc4c(N5CC6CCC(C5)N6)nc(OCC56CCCN5CC(F)C6)nc4c3F)c12
IC50: < 3.16 nM
--
compound: Nc1ccn(C2OC(CO)C(O)C2(F)F)c(=O)n1 (stereo not drawn) + C#Cc1c(F)ccc2cc(O)cc(-c3ncc4c(N5CC6CCC(C5)N6)nc(OCC56CCCN5CC(F)C6)nc4c3F)c12
IC50: < 3.16 nM

input: Report value: IC50, system: 377384-186-R-J1-PDC complex spheroid viability, compound: NC1c2ccccc2OC12CCN(c1cnc3c(N4CCCc5ncccc54)n[nH]c3n1)CC2 (stereo not drawn) + C=CC(=O)N1CCN(c2nc(OCC3CCCN3C)nc3c(F)c(-c4nc(N)cc(C)c4C(F)(F)F)c(Cl)cc23)C(C)C1
output: > 10000 nM

input: Report value: IC50, system: 377384-186-R-J1-PDC complex spheroid viability, compound: CCC(CC)c1cc(NC2CCC(N)C2)n2nccc2n1 (stereo not drawn) + C#Cc1c(F)ccc2cc(O)cc(-c3ncc4c(N5CC6CCC(C5)N6)nc(OCC56CCCN5CC(F)C6)nc4c3F)c12
output: < 31.6 nM

---

Tested on: 377384-186-R-J1-PDC complex spheroid viability
Test: Anticancer human tumor 377384-186-R-J1-PDC cell line growth inhibition [RAS];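 note: spheroids exposed to compounds for seven days before readout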
Conditions: second compound 0.316 µM; first compound 1 µM; stronger effect = lower value
experimental readout: viability, T/C (%)
Field: numeric (%). Do not append units.

compound: C=CC(=O)Nc1cc(Nc2nccc(-c3cn(C)c4ccccc34)n2)c(OC)cc1N(C)CCN(C)C + C#Cc1c(F)ccc2cc(O)cc(-c3ncc4c(N5CC6CCC(C5)N6)nc(OCC56CCCN5CC(F)C6)nc4c3F)c12
value units: %
viability, T/C: 1.33

input: Kindly indicate its recorded viability, T/C. Item: NC1c2ccccc2OC12CCN(c1cnc3c(N4CCCc5ncccc54)n[nH]c3n1)CC2 (stereo not drawn) + C=CC(=O)N1CCN(c2nc(OCC3CCCN3C)nc3c(F)c(-c4nc(N)cc(C)c4C(F)(F)F)c(Cl)cc23)C(C)C1
output: 70.3

input: Kindly indicate its recorded viability, T/C. Item: Nc1ccn(C2OC(CO)C(O)C2(F)F)c(=O)n1 (stereo not drawn) + C=CC(=O)N1CCN(c2nc(OCC3CCCN3C)nc3c(F)c(-c4nc(N)cc(C)c4C(F)(F)F)c(Cl)cc23)C(C)C1
output: 3.38

---

Tested on: 377384-186-R-J1-PDC complex spheroid viability
Assay: Anticancer human tumor 377384-186-R-J1-PDC cell line growth inhibition [RAS];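 note: spheroids exposed to compounds for seven days before readout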
Conditions: second compound 0.0316 µM; first compound 3.16 µM; stronger effect = lower value
experimental readout: viability, T/C (%)
Field: numeric (%). Do not append units.

Answered examples (5):
compound: CC1(O)CCCC1n1c(=O)c(C(F)F)cc2cnc(NC3CCN(S(C)(=O)=O)CC3)nc21 (stereo unspecified) + C=CC(=O)N1CCN(c2nc(OCC3CCCN3C)nc3c(F)c(-c4nc(N)cc(C)c4C(F)(F)F)c(Cl)cc23)C(C)C1
value units: %
viability, T/C: 29.1
--
compound: C[C@@H](NC(=O)c1ncnc(N)c1Cl)c1ncc(C(=O)Nc2cc(C(F)(F)F)c(Cl)cn2)s1 + C=CC(=O)N1CCN(c2nc(OCC3CCCN3C)nc3c(F)c(-c4nc(N)cc(C)c4C(F)(F)F)c(Cl)cc23)C(C)C1
value units: %
viability, T/C: 116
--
compound: Cc1nc(N2CCC3(CC2)COC(C)C3N)c(CO)nc1Sc1ccnc(N)c1Cl (stereo unspecified) + C#Cc1c(F)ccc2cc(O)cc(-c3ncc4c(N5CC6CCC(C5)N6)nc(OCC56CCCN5CC(F)C6)nc4c3F)c12
value units: %
viability, T/C: 1.57
--
compound: CC1(O)CCCC1n1c(=O)c(C(F)F)cc2cnc(NC3CCN(S(C)(=O)=O)CC3)nc21 (stereo unspecified) + C#Cc1c(F)ccc2cc(O)cc(-c3ncc4c(N5CC6CCC(C5)N6)nc(OCC56CCCN5CC(F)C6)nc4c3F)c12
value units: %
viability, T/C: 16
--
compound: NC1c2ccccc2OC12CCN(c1cnc3c(N4CCCc5ncccc54)n[nH]c3n1)CC2 (stereo unspecified) + C=CC(=O)N1CCN(c2nc(OCC3CCCN3C)nc3c(F)c(-c4nc(N)cc(C)c4C(F)(F)F)c(Cl)cc23)C(C)C1
value units: %
viability, T/C: 57.7

Okay, now this compound:
input: Kindly indicate its recorded viability, T/C. Item: CCC(CC)c1cc(NC2CCC(N)C2)n2nccc2n1 (stereo unspecified) + C=CC(=O)N1CCN(c2nc(OCC3CCCN3C)nc3c(F)c(-c4nc(N)cc(C)c4C(F)(F)F)c(Cl)cc23)C(C)C1
output: 2.68

---

System: 377384-186-R-J1-PDC complex spheroid viability
Experiment: Anticancer human tumor 377384-186-R-J1-PDC cell line growth inhibition [RAS];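 note: spheroids exposed to compounds for seven days before readout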
Settings: second compound 0.003 µM; first compound 3.16 µM; stronger effect = lower value
Text: RAS pathway inhibitors in Combinations in Complex Spheroids A high-throughput screen of multi-cell type tumor spheroids was designed to identify active combinations of RAS pathway inhibitors and targeted small molecules. Complex spheroids include a stromal component modeled by human endothelial cells (HUVEC) and fibroblasts modeled by human mesenchymal stem cells (MSCs). […] Compounds. […] If the clinical Cmax for an agent had not been determined, the highest concentration tested was 10 microM. […]
Catalogue of compounds with associated viability, T/C
Field: numeric (%). Do not append units.

compound: CC(=O)OC12COC1CC(O)C1(C)C(=O)C(O)C3=C(C)C(OC(=O)C(O)C(NC(=O)OC(C)(C)C)c4ccccc4)CC(O)(C(OC(=O)c4ccccc4)C21)C3(C)C (stereo not given) + CCn1c(-c2cccnc2C(C)OC)c2c3cc(ccc31)N1CCOC(CC(NC(=O)C(C(C)C)N(C)C(=O)C3(F)CCN(C(=O)C#CC(C)(C)N(C)C)CC3)C(=O)N3CCCC(N3)C(=O)OCC(C)(C)C2)C1
system under test: 377384-186-R-J1-PDC complex spheroid viability
viability, T/C, %: 14.7
--
compound: Cc1nc(N2CCC3(CC2)COC(C)C3N)c(CO)nc1Sc1ccnc(N)c1Cl (stereo not given) + CCn1c(-c2cccnc2C(C)OC)c2c3cc(ccc31)N1CCOC(CC(NC(=O)C(C(C)C)N(C)C(=O)C3(F)CCN(C(=O)C#CC(C)(C)N(C)C)CC3)C(=O)N3CCCC(N3)C(=O)OCC(C)(C)C2)C1
system under test: 377384-186-R-J1-PDC complex spheroid viability
viability, T/C, %: 87.7
--
compound: C[C@@H](NC(=O)c1ncnc(N)c1Cl)c1ncc(C(=O)Nc2cc(C(F)(F)F)c(Cl)cn2)s1 + CCn1c(-c2cc(N3CCN(C)CC3)cnc2C(C)OC)c2c3cc(ccc31)-c1csc(n1)CC(NC(=O)C1CC1C)C(=O)N1CCCC(N1)C(=O)OCC(C)(C)C2
system under test: 377384-186-R-J1-PDC complex spheroid viability
viability, T/C, %: 29.3

input: Report value: viability, T/C, system: 377384-186-R-J1-PDC complex spheroid viability, compound: CC(C)NCC(C(=O)N1CCN(c2ncnc3c2C(C)CC3O)CC1)c1ccc(Cl)cc1 (stereo not given) + CCn1c(-c2cccnc2C(C)OC)c2c3cc(ccc31)N1CCOC(CC(NC(=O)C(C(C)C)N(C)C(=O)C3(F)CCN(C(=O)C#CC(C)(C)N(C)C)CC3)C(=O)N3CCCC(N3)C(=O)OCC(C)(C)C2)C1
output: 46.9

input: Report value: viability, T/C, system: 377384-186-R-J1-PDC complex spheroid viability, compound: Cc1nc(N2CCC3(CC2)COC(C)C3N)c(CO)nc1Sc1ccnc(N)c1Cl (stereo not given) + CCn1c(-c2cc(N3CCN(C)CC3)cnc2C(C)OC)c2c3cc(ccc31)-c1csc(n1)CC(NC(=O)C1CC1C)C(=O)N1CCCC(N1)C(=O)OCC(C)(C)C2
output: 0.72
